# STUDY_SYSTEM: T1, human PACAP27 (human, C-terminal leucine is amidated; 125I-labelled in Example 10)
# T1 peptide: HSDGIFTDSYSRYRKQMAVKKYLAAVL
# ASSAY_DETAILS: SPR, Ab immobilised
MEASURED_METRIC: pKd
pKd is defined as minus the log10 of a concentration measured in mol/L.

{"columns": ["BINDER", "MEASURED_METRIC", "MEAS_VALUE"],
 "data": [
  ["anti-PACAP antibody Ab15 (antibody, human IgG1, kappa, N297A, V domains shown, full-length rabbit/human chimeric antibody) VH: QSVEASGGHLVTPGTPLTLTCTVSGFSLSSAAMNWVRQAPGKGLEWIGSVDERQNKYYASWAKGRFTISRTSSTTVNLKMTSPTTEDTATYFCARGGGEFFIWGQGTLVTVSS VL: AQVLTQTPSSVSAAVGGTVTINCQSSQSVYSNNRLSWYQQKPGQPPNLLIYEASSLASGVPSRFSGSGSGTQFTLTISDLECDDAATYYCAGAYNTGIYGFGGGTEVVVKR", "pKd", 9.77]
]}

For this binder ( anti-PACAP antibody Ab12.H (antibody, human IgG1, kappa, N297A, V domains shown, humanized form of Ab12, full length) VH: EVQLVESGGGLVQPGGSLRLSCAASGFSLSSYAMGWVRQAPGKGLEWIGDISTYGTTDYASWVYGRFTISRDNSKNTVYLQMNSLRAEDTAVYFCARDYWLSLWGQGTLVTVSS VL: AAQLTQSPSTLSASVGDRVTITCQSSQSVYDNNALAWYQQKPGKAPKLLIYAASTLASGVPSRFSGSGSGTEFTLTISSLQPDDFATYYCLGGYYDPADNAFGGGTKVEIKR ), measured pKd is 9.52

Per the record, anti-PACAP antibody Ab5 (antibody, human IgG1, kappa, N297A, V domains shown, full-length rabbit/human chimeric antibody) VH: QSVEESGGRLVTPGTPLTLTCTVSGFSLSSYAMIWVRQAPGKGLEWIGIIYDNGDTYYASWAKGRFTISKTSTTVYLKIASPTTEDTATYFCAREPGSTTQNDLWGQGTLVTVSS VL: DVVMTQTPASVSEPVGGTVTIKCQASENIYNSLLWYQQKPGQPPKLLIYRASTLASGVSSRFKGSGSGTEFTLTISDLECADAATYYCQNYYNIWTNGAAFGGGTEVVVKR has pKd of 10.02

Lab note: measured pKd of anti-PACAP antibody Ab13 (antibody, human IgG1, kappa, N297A, V domains shown, full-length rabbit/human chimeric antibody) VH: QSVEESGGRLVTPGTPLTLTCTVSGFSLSSAAMNWVRQAPGKGLEWIGIIDNTAGTYYAPWAKGRFTISKTSSTTVDLKMTSPTTEDTATYFCARGGGEFFIWGPGTLVTVSS VL: AQVLTQTPSSVSAAVGGTVTINCQSSQSVHDGSYLSWYQQKPGQPPNFLIYQASNLASGVPSRFKGSGSGTQFTLTISDLECDDAATYYCAGGYSSNICGFGGGTEVVVKR was 9.92
